target.or.test.system: T1, soluble IGF-1R (recombinant human IGF-1R extracellular domain, R&D Systems Cat. # 391-GR/CF) (human, UniProt P08069 31-935)
T1 construct: extracellular domain; Bought protein; coated on plates (phage ELISA, TRF) or Eu-labelled (TR-FRET); also called sIGF-1R; rhIGF-1R
method: phage ELISA
Classes based on ratio over background: low class = under 6 ratio, middle class = from 6 ratio up to 10 ratio, high class = 10 ratio and over

{"binder": "QPAPDGFYSALMKLIGRGGVS (on phage) [20E2B-3-C8-IGFR]", "class": "high class"}
{"binder": "KLHNLMFYYGLQRLVWGAGLG (on phage) [20E23-4-H3-IGFR]", "class": "high class"}
{"binder": "SGAKVIVVTGDSGDPFYHKLSELLQGS (on phage) [B6Hα-2-C10-IR]", "class": "low class"}
{"binder": "GCVVEWQKWHGASDPFYHKLSELGGCS (on phage) [B6Hα-3-F10-IR]", "class": "middle class"}

Exercise: State the band of NYRRQVFNGNFYDWFDRQVFSLVTPG (on phage) [H2CA-3-D8-IGFR]
Solution: middle class

Exercise: And then LGYQEPFQQNFYDWFVRQVSGAENAG (on phage) [H2CA-3-E8-IGFR] , what is it?
Solution: middle class

Exercise: Consider next the binder AQPCGGFYGLLEQLVGRSVCD (on phage) [20E2B-4-F10-IGFR] in the same way.
Solution: high class
